- Test system: GABA A receptor α5β3γ2 (hα5) (Homo sapiens, UniProt P18507+P31644)
- Construct: expressed in transfected cells; host or cells: HEK293 (transiently transfected; membranes prepared from cell pellets)
- Assay: [3H]flumazenil competition binding assay, human GABA A α5β3γ2 receptors
- Stated conditions: displacement of [3H]flumazenil (0.5 nM) from membranes of HEK293 cells expressing human α5β3γ2; 1 hour at 4° C.; means of two determinations
Just a reminder that ties go to NOT MET: only Ki strictly below 0.004 µM counts as MET.

Query :: Is it true that Ki reported for "Cc1onc(-c2ccc(Br)cc2)c1C(=O)c1c[nH]c(C(=O)N[C@H]2CC[C@H](O)CC2)c1" is less than 0.004 µM?
Result :: NOT MET

Query :: Is it true that Ki reported for "Cc1onc(-c2ccc(F)cc2)c1C(=O)c1c[nH]c(C(=O)NC2CCC2)c1" is less than 0.004 µM?
Result :: MET

Query :: Is it true that Ki reported for Cc1onc(-c2ccc(Br)cc2)c1C(=O)c1c[nH]c(C(=O)NC2CCOC(C)(C)C2)c1 (centres unmarked) is less than 0.004 µM?
Result :: NOT MET

Query :: Is it true that Ki reported for "Cc1onc(-c2ccc(Br)cc2)c1C(=O)c1c[nH]c(C(=O)NC2CCOCC2)c1" is less than 0.004 µM?
Result :: MET

Query :: Is it true that Ki reported for "Cc1onc(-c2ccc(F)cc2)c1C(=O)c1c[nH]c(C(=O)NC2CCOCC2)c1" is less than 0.004 µM?
Result :: MET

Query :: Is it true that Ki reported for "Cc1onc(-c2ccc(F)cc2)c1C(=O)c1c[nH]c(C(=O)NC2CCCC2)c1" is less than 0.004 µM?
Result :: MET

Query :: Is it true that Ki reported for "CCc1onc(-c2ccccc2)c1C(=O)c1c[nH]c(C(=O)NCC2CC2)c1" is less than 0.004 µM?
Result :: MET

Query :: Is it true that Ki reported for "Cc1onc(-c2ccc(F)cc2)c1C(=O)c1c[nH]c(C(=O)NCCc2cnc[nH]2)c1" is less than 0.004 µM?
Result :: NOT MET

Query :: Is it true that Ki reported for "Cc1onc(-c2ccccc2)c1C(=O)c1c[nH]c(C(=O)NCC2CC2)c1" is less than 0.004 µM?
Result :: NOT MET

Query :: Is it true that Ki reported for "Cc1onc(-c2ccccc2)c1C(=O)c1c[nH]c(C(=O)NC2CCOCC2)c1" is less than 0.004 µM?
Result :: MET

Query :: Is it true that Ki reported for "CCc1onc(-c2ccccc2)c1C(=O)c1c[nH]c(C(=O)NC2CCCC2)c1" is less than 0.004 µM?
Result :: MET

Query :: Is it true that Ki reported for "CCc1onc(-c2ccccc2)c1C(=O)c1c[nH]c(C(=O)NC2CCOCC2)c1" is less than 0.004 µM?
Result :: MET

Query :: Is it true that Ki reported for "Cc1onc(-c2cccc(F)c2)c1C(=O)c1c[nH]c(C(=O)NC2CCCC2)c1" is less than 0.004 µM?
Result :: NOT MET

Query :: Is it true that Ki reported for "Cc1onc(-c2ccc(Cl)cc2)c1C(=O)c1c[nH]c(C(=O)NCc2ccco2)c1" is less than 0.004 µM?
Result :: NOT MET

Query :: Is it true that Ki reported for "Cc1onc(-c2ccc(Br)cc2)c1C(=O)c1cc(C(=O)NCCCN2CCOCC2)n(C)c1" is less than 0.004 µM?
Result :: NOT MET

Query :: Is it true that Ki reported for "Cc1onc(-c2ccc(Cl)cc2)c1C(=O)c1c[nH]c(C(=O)NCC2CC2)c1" is less than 0.004 µM?
Result :: MET

Query :: Is it true that Ki reported for "Cc1onc(-c2ccc(Br)cc2)c1C(=O)c1cc(C(=O)NC2CCOCC2)n(C)c1" is less than 0.004 µM?
Result :: NOT MET
